SYSTEM_NAME: IKZF2 (Homo sapiens, UniProt Q96SW2+Q9UKS7)
Sequence (Q9UKS7 whole entry, one chain of several): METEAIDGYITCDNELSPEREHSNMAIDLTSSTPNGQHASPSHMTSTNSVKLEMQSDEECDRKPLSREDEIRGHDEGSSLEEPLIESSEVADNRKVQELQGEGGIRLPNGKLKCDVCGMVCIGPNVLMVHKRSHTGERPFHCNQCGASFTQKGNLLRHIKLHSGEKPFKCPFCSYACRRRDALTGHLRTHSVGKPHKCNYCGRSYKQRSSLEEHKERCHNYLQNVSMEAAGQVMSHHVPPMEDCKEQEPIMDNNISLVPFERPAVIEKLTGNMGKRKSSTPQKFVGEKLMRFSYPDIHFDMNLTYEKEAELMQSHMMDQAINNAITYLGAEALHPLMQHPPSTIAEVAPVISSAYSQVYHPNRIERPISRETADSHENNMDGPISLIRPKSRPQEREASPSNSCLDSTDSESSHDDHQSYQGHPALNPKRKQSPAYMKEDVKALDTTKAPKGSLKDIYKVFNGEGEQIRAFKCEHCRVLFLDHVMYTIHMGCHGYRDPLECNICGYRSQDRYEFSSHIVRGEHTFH
METHOD: Prolabel quantification of IKZF2 protein levels in 293GT cells
Format: cell-based
CONDITION_LABEL: 24 h, 10 μM, 24 h, 293GT cells; read-out: IKZF2 % protein reduction at 10 μM, 24 h
MEASURED_ATTRIBUTE: inhibition at 10 µM (%)

Would you please look over these solved cases?
INSERT INTO assay_data (compound, measured_attribute, recorded_number) VALUES
  ('C[C@H]1CC(c2ccc3c(c2)CN(C2CCC(=O)NC2=O)C3=O)CCN1Cc1ccccc1 (stereo partly drawn)', 'inhibition at 10 µM', 50),
  ('O=C1CCC(N2Cc3cc(C4CCN(CC(F)(F)F)CC4)ccc3C2=O)C(=O)N1 (stereo not drawn)', 'inhibition at 10 µM', 0),
  ('O=C1CCC(N2Cc3cc(C4CCN(Cc5cccn6nccc56)CC4)ccc3C2=O)C(=O)N1 (stereo not drawn)', 'inhibition at 10 µM', 75);

a = N#CCc1ccc(CN2CCC(c3ccc4c(c3)CN(C3CCC(=O)NC3=O)C4=O)CC2)cc1 (stereo not drawn)
b = O=C1CCC(N2Cc3cc(C4CCN(Cc5nccc6ccccc56)CC4)ccc3C2=O)C(=O)N1 (stereo not drawn)
Query: Please choose the item with the lower inhibition at 10 µM value from this pair: a and b Returns: label corresponding to the selected item.
Response: b

A = O=C1CCC(N2Cc3cc(C4CCN(Cc5ccnc6ccccc56)CC4)ccc3C2=O)C(=O)N1 (stereo not drawn)
B = O=C1CCC(N2Cc3cc(C4CCCN(Cc5ccccc5)CC4)ccc3C2=O)C(=O)N1 (single isomer, unassigned)
Query: Which shows the larger inhibition at 10 µM value: A or B ? Pick one; state its label.
Response: A

P = C[C@H](c1ccccc1)N1CCC(c2ccc3c(c2)CN(C2CCC(=O)NC2=O)C3=O)CC1 (single isomer, unassigned)
Q = O=C1CCC(N2Cc3cc(C4CCN(C(CO)c5ccccc5)CC4)ccc3C2=O)C(=O)N1 (single isomer, unassigned)
Query: P or Q : whose inhibition at 10 µM is greater? // output: label of the selected item
Response: P
(P: 70%, Q: 40%)

a = O=C1CCC(N2Cc3cc(C4CCN(Cc5ccc(OCc6ccc(F)cc6)cc5)CC4)ccc3C2=O)C(=O)N1 (stereo not drawn)
b = CC1CN(Cc2ccccc2)CCC1c1ccc2c(c1)CN(C1CCC(=O)NC1=O)C2=O (stereo not drawn)
Query: Please indicate which entry, a or b , has the lower recorded inhibition at 10 µM value. The response must carry the label of the picked entry.
Response: b
(b: 50%, a: 75%)

1 = O=C1CCC(N2Cc3cc(C4CCN(Cc5ccc(F)cc5)CC4)ccc3C2=O)C(=O)N1 (stereo not drawn)
2 = Cn1ncc(CN2CCC(c3ccc4c(c3)CN(C3CCC(=O)NC3=O)C4=O)CC2)c1N (stereo not drawn)
Query: Lower inhibition at 10 µM: 1 or 2 ? Kindly state the label of the option you pick.
Response: 2

====

SYSTEM_NAME: IKZF1 (Homo sapiens, UniProt Q13422+Q96SW2)
Sequence (Q13422 whole entry): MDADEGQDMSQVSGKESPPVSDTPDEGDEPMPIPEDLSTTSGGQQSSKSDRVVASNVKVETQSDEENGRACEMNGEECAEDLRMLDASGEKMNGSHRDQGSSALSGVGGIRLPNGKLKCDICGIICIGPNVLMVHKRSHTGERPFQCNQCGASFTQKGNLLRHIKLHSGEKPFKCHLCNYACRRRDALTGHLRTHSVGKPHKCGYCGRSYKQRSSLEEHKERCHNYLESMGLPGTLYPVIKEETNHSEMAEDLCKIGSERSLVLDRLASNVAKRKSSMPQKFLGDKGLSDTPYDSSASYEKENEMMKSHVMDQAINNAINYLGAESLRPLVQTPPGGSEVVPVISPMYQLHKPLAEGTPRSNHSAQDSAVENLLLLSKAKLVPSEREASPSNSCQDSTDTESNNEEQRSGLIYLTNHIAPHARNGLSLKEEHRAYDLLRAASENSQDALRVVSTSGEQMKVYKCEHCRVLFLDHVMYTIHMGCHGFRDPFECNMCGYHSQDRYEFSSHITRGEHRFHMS
Sequence (Q96SW2 whole entry): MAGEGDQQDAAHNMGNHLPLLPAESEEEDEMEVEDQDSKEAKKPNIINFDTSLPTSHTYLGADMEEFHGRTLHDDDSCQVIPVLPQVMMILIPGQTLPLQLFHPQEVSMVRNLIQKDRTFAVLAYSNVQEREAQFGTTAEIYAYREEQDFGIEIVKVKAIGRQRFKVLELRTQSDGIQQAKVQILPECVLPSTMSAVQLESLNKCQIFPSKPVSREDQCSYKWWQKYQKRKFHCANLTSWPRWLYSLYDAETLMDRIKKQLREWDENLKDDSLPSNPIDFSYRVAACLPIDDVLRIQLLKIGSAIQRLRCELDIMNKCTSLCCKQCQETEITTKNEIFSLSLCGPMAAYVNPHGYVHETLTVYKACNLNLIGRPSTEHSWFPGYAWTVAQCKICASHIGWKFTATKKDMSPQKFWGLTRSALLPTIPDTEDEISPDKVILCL
Sequence (Q16531 whole entry partner): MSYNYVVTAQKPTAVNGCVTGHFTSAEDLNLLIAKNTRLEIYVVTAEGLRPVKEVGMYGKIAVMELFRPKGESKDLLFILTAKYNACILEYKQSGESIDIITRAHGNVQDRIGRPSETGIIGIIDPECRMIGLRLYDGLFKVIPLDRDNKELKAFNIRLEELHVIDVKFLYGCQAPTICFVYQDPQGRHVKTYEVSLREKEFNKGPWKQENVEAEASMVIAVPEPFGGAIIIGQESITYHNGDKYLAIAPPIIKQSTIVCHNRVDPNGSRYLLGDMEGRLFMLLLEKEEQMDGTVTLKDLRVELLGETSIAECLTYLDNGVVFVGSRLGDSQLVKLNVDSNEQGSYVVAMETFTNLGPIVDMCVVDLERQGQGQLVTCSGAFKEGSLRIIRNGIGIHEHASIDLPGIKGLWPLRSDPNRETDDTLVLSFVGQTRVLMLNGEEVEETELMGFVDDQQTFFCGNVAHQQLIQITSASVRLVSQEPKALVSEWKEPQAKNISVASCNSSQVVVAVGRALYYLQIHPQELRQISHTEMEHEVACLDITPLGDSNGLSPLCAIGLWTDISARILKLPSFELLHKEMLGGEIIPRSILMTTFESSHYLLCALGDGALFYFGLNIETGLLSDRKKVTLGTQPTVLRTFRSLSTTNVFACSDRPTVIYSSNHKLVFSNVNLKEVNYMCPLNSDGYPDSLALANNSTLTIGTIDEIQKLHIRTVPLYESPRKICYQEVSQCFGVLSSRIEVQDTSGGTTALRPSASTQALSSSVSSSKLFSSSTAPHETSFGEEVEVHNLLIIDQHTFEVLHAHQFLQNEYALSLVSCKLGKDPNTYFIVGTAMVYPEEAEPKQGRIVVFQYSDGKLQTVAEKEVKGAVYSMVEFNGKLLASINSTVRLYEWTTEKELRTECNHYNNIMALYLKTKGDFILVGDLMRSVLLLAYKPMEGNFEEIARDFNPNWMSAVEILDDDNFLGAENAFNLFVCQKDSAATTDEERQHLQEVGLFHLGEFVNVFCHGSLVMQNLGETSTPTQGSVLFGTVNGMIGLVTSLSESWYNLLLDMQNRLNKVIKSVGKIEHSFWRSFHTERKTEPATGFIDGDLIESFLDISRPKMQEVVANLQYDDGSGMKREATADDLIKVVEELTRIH
METHOD: Prolabel quantification of IKZF1 protein levels in 293GT cells
Format: cell-based
CONDITION_LABEL: Prolabel assay, read-out: IKZF1 EC50
Experimental: The Prolabel system from DiscoverX was used to develop high-throughput and quantitative assays to measure changes in IKZF1, IKZF2 and GSPT1 protein levels in response to compounds. […] The complementary fragment of beta-galactosidase (from DiscoverX), is added to the prolabel tag to form an active beta galactosidase enzyme whose activity can be precisely measured. In this way, the levels of a fusion protein with the prolabel tag can be quantified in cell lysates. […]
MEASURED_ATTRIBUTE: DC50

INSERT INTO results (molecule, result) VALUES
  ('CCC(C)(C)c1ccc(CN2CCC(c3ccc4c(c3)CN(C3CCC(=O)NC3=O)C4=O)CC2)cc1 (centres unmarked) [Compound I-89]', '> 30 µM'),
  ('O=C1CCC(N2Cc3cc(C4CCN(Cc5ccc6cn[nH]c6c5)CC4)ccc3C2=O)C(=O)N1 (centres unmarked) [Compound I-137]', '> 30 µM'),
  ('O=C1CCC(N2Cc3cc(C4CCN(Cc5cc(-c6ccccn6)n[nH]5)CC4)ccc3C2=O)C(=O)N1 (centres unmarked) [Compound I-201]', '> 30 µM');

Query: For the molecule shown here, O=C1CCC(N2Cc3cc(C4CCNCC4)ccc3C2=O)C(=O)N1 (centres unmarked) [Compound I-155] , give the reported DC50.
Response: > 50 µM

====

SYSTEM_NAME: IKZF1 (Homo sapiens, UniProt Q13422+Q96SW2)
METHOD: Prolabel quantification of IKZF1 protein levels in 293GT cells
Format: cell-based
CONDITION_LABEL: Prolabel assay, read-out: IKZF1 EC50
Experimental: The Prolabel system from DiscoverX was used to develop high-throughput and quantitative assays to measure changes in IKZF1, IKZF2 and GSPT1 protein levels in response to compounds. […] The complementary fragment of beta-galactosidase (from DiscoverX), is added to the prolabel tag to form an active beta galactosidase enzyme whose activity can be precisely measured. In this way, the levels of a fusion protein with the prolabel tag can be quantified in cell lysates. […]
MEASURED_ATTRIBUTE: DC50

INSERT INTO assay_data (compound, system_name, result) VALUES
  ('CC(C)Sc1ccc(CN2CCC(c3ccc4c(c3)CN(C3CCC(=O)NC3=O)C4=O)CC2)cc1 (stereo not shown)', 'IKZF1 (Homo sapiens, UniProt Q13422+Q96SW2)', '> 30 µM'),
  ('O=C1CCC(N2Cc3cc(C4CCN([C@@H](CO)c5ccccc5)CC4)ccc3C2=O)C(=O)N1 (single isomer, unassigned)', 'IKZF1 (Homo sapiens, UniProt Q13422+Q96SW2)', '> 30 µM'),
  ('O=C1CCC(N2Cc3cc(C4CCN(CCc5ccccc5)CC4)ccc3C2=O)C(=O)N1 (stereo not shown)', 'IKZF1 (Homo sapiens, UniProt Q13422+Q96SW2)', '> 30 µM'),
  ('CC(C)(C)c1ccc(CN2CCC(c3ccc4c(c3)CN(C3CCC(=O)NC3=O)C4=O)CC2)cc1 (stereo not shown)', 'IKZF1 (Homo sapiens, UniProt Q13422+Q96SW2)', '> 30 µM'),
  ('Cc1ccc2c(CN3CCC(c4ccc5c(c4)CN(C4CCC(=O)NC4=O)C5=O)CC3)c[nH]c2c1 (stereo not shown)', 'IKZF1 (Homo sapiens, UniProt Q13422+Q96SW2)', '> 30 µM'),
  ('COc1ncc(CN2CCC(c3ccc4c(c3)CN(C3CCC(=O)NC3=O)C4=O)CC2)cn1 (stereo not shown)', 'IKZF1 (Homo sapiens, UniProt Q13422+Q96SW2)', '> 50 µM');

Let's switch to this compound now.
Query: Which DC50 is reported for this compound? O=C1CCC(N2Cc3cc(C4CCN(Cc5ccccc5)CC4)ccc3C2=O)C(=O)N1 (stereo not shown)
Response: > 50 µM

====

SYSTEM_NAME: IKZF1 (Homo sapiens, UniProt Q13422+Q96SW2)
METHOD: Prolabel quantification of IKZF1 protein levels in 293GT cells
Type: cell-based
CONDITION_LABEL: Prolabel assay, read-out: IKZF1 EC50
MEASURED_ATTRIBUTE: DC50

INSERT INTO assay_data (molecule, measured_attribute, result) VALUES
  ('O=C1CCC(N2Cc3cc(C4=CCCNC4)ccc3C2=O)C(=O)N1 (stereo not shown) [Compound I-282]', 'DC50', '> 30 µM'),
  ('O=C1CCC(N2Cc3cc(C4CCN(Cc5ccc(Cl)cc5)CC4)ccc3C2=O)C(=O)N1 (stereo not shown) [Compound I-97]', 'DC50', '> 50 µM'),
  ('O=C1CCC(N2Cc3cc(C4CCCN(Cc5ccccc5)CC4)ccc3C2=O)C(=O)N1 (single isomer, unassigned) [Compound I-190]', 'DC50', '> 30 µM'),
  ('O=C1CCC(N2Cc3cc(C4CCN(Cc5cnc(N6CCOCC6)nc5)CC4)ccc3C2=O)C(=O)N1 (stereo not shown) [Compound I-147]', 'DC50', '> 30 µM'),
  ('CN1CCN(Cc2cc(CN3CCC(c4ccc5c(c4)CN(C4CCC(=O)NC4=O)C5=O)CC3)ccc2O)CC1 (stereo not shown) [Compound I-205]', 'DC50', '> 30 µM');

Query: Any idea what DC50 was measured for O=C1CCC(N2Cc3cc(C4CCN(Cc5cccc6c5CCCC6)CC4)ccc3C2=O)C(=O)N1 (stereo not shown) [Compound I-164] ?
Response: > 50 µM

Query: What measured DC50 goes with O=C1CCC(N2Cc3cc(C4CCN(Cc5ncccn5)CC4)ccc3C2=O)C(=O)N1 (stereo not shown) [Compound I-95] ?
Response: > 30 µM

====

Parameter: DC50. Scope: all listed entries.
SYSTEM_NAME: IKZF1 (Homo sapiens, UniProt Q13422+Q96SW2)
METHOD: Prolabel quantification of IKZF1 protein levels in 293GT cells
Type: cell-based
CONDITION_LABEL: Prolabel assay, read-out: IKZF1 EC50

INSERT INTO measurements (molecule, measured_attribute, result) VALUES
  ('O=C1CCC(N2Cc3cc(C4CCN(Cc5cccc6ncnn56)CC4)ccc3C2=O)C(=O)N1 (stereo not drawn)', 'DC50', '> 30 µM'),
  ('O=C1CCC(N2Cc3cc(C4CCN(CC(F)(F)F)CC4)ccc3C2=O)C(=O)N1 (stereo not drawn)', 'DC50', '> 50 µM'),
  ('O=C1CCC(N2Cc3cc(C4CCN(Cc5ccns5)CC4)ccc3C2=O)C(=O)N1 (stereo not drawn)', 'DC50', '> 30 µM'),
  ('O=C1CCC(N2Cc3cc(C4CCN(Cc5ccc(C(F)(F)F)cc5)CC4)ccc3C2=O)C(=O)N1 (stereo not drawn)', 'DC50', '> 30 µM'),
  ('O=C1CCC(N2Cc3cc(C4CCN(Cc5ccc6ccc(F)cc6n5)CC4)ccc3C2=O)C(=O)N1 (stereo not drawn)', 'DC50', '> 30 µM'),
  ('Cc1nc2sccn2c1CN1CCC(c2ccc3c(c2)CN(C2CCC(=O)NC2=O)C3=O)CC1 (stereo not drawn)', 'DC50', '> 30 µM');

Query: # query: DC50 of entry O=C1CCC(N2Cc3cc(C4CCN(Cc5ccccc5C(F)(F)F)CC4)ccc3C2=O)C(=O)N1 (stereo not drawn)
Response: > 30 µM

Query: Returns the measured DC50 for the input molecule. Input: O=C1CCC(N2Cc3cc(C4CCN(Cc5ccc6c(c5)OC(F)(F)O6)CC4)ccc3C2=O)C(=O)N1 (stereo not drawn)
Response: > 30 µM

Where do the numbers come from? From patent US11053218B2.
